- Test system: D-1 receptor
- Assay text: D-1 receptor in carp retina (in vitro)
- Conditions: concentration of agonist required to inhibit the biochemical response by 50%, read-out: Fish retina D-1 receptor IC50
Reported metric: pIC50
// field semantics: pIC50 = negative decimal log of concentration (mol/L)

Please look up its pIC50: CN1CCc2cccc3c2[C@H]1Cc1ccc(O)c(O)c1-3 [Apomorphine, reference compound]
5.82

Consider the record given below.
May I ask what pIC50 has been recorded for CCCN(CCc1ccccc1)C1CCc2c(O)cccc2C1 (centres unmarked) [PPHT] ?
5.43
